This listing pairs compounds with measured Cmax.
test: Cmax in rats; assay type: ADME, organism-based; settings: rat, in vivo
# unit: ng/mL | format: bare number

The reported Cmax of the compound `C/C(=C(\F)C(=O)Nc1ccc(-c2ccccc2S(N)(=O)=O)cc1Br)c1cccc(C(=N)NO)c1` was 630

The reported Cmax of the compound `C/C(=C(\F)C(=O)Nc1ccc(-c2ccccc2S(N)(=O)=O)cc1Br)c1cccc(C(=N)N)c1` was 168

----------
pIC50 data for Coagulation factor X (Homo sapiens, UniProt P00742) follow.
Scale: pIC50 equals -log10([C]), with [C] in mol/L.

Worked cases, pIC50 given:
[[record]]
structure = "N=C(NO)c1cccc(/C(=C(/F)C(=O)Nc2ccc(-c3ccccc3S(N)(=O)=O)cc2)n2cccn2)c1"
target_desc = "Coagulation factor X (Homo sapiens, UniProt P00742)"
observable = "pIC50"
measured_number = 5.42

[[record]]
structure = "CNNC(=N)c1cccc(/C(C)=C2/CC(=O)N(c3ccc(-c4ccccc4S(N)(=O)=O)cc3)C2=O)c1"
target_desc = "Coagulation factor X (Homo sapiens, UniProt P00742)"
observable = "pIC50"
measured_number = 7.32

[[record]]
structure = "C/N=C(\\N)c1cccc(/C(C)=C(/F)C(=O)Nc2ccc(-c3ccccc3S(N)(=O)=O)cc2)c1"
target_desc = "Coagulation factor X (Homo sapiens, UniProt P00742)"
observable = "pIC50"
measured_number = 6.05


The reported pIC50 of the compound `C/C(=C(\F)C(=O)Nc1ccc(-c2ccccc2S(N)(=O)=O)cc1)c1cccc(C(=N)N2CCC2)c1` was 6.05

----------
pIC50 data for Prothrombin (Homo sapiens, UniProt P00734) follow.
Scale: pIC50 equals -log10([C]), with [C] in mol/L.

[[record]]
structure = "C/C(=C1\\CC(=O)N(c2ccc(-c3ccccc3S(N)(=O)=O)cc2)C1=O)c1cccc(C(=N)N)c1"
measured_number = 6.17


Now for a further compound.
The reported pIC50 of the compound `C/C(=C1\CC(=O)N(c2ccc(C(C)(C)C)cc2)C1=O)c1cccc(C(=N)N)c1` was 7.12

----------
molecular target: Coagulation factor X (Homo sapiens)
Sequence (P00742 41-179 limits assumed): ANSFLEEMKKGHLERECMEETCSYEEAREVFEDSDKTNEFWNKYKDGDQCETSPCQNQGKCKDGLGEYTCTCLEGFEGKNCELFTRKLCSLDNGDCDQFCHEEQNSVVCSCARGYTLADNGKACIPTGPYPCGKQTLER
Sequence (P00742 235-488 limits assumed): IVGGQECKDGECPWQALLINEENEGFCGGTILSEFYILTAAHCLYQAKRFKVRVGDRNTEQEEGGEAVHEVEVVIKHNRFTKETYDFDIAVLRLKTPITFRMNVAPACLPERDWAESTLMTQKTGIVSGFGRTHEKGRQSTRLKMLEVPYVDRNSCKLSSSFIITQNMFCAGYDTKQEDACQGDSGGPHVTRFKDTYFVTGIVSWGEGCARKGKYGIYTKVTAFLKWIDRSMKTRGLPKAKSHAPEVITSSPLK
Friendly reminder: IC50 below 0.5 µM is fulfilled, at or above is not fulfilled.

[[record]]
structure = "C/C(=C(\\F)C(=O)Nc1ccc(-c2ccccc2S(N)(=O)=O)cc1)c1cccc(C(=N)NC#N)c1"
target_desc = "Coagulation factor X (Homo sapiens)"
answer_label = "fulfilled"

[[record]]
structure = "C/C(=C(\\F)C(=O)Nc1ccc(-c2ccccc2S(N)(=O)=O)cc1)c1cccc(C(=N)NNc2ccccc2)c1"
target_desc = "Coagulation factor X (Homo sapiens)"
answer_label = "not fulfilled"

[[record]]
structure = "N=C(N)c1cccc(/C(=C(/F)C(=O)Nc2ccc(-c3ccccc3S(N)(=O)=O)cc2)n2cccn2)c1"
target_desc = "Coagulation factor X (Homo sapiens)"
answer_label = "fulfilled"

[[record]]
structure = "C/C(=C(\\F)C(=O)Nc1ccc(-c2ccccc2S(N)(=O)=O)cc1Br)c1cccc(C(=N)NO)c1"
target_desc = "Coagulation factor X (Homo sapiens)"
answer_label = "not fulfilled"


Could you now look at the following compound, please?
Query: Hello, is IC50 of the following compound strictly smaller than 0.5 µM? `C/C(=C(\F)C(=O)Nc1ccc(-c2ccccc2S(N)(=O)=O)cc1)c1cccc(C(=N)NNCC(F)(F)F)c1`
Result: fulfilled
